# subject of test: T1, human CTLA-4, full-length, expressed on transfected Expi293 cells (human, UniProt P16410 36-223)
# T1 construct: whole, on cells
# protocol details: flow cytometry, 100 nM, Expi293 cells with human CTLA-4
Measured MFI accompanies every entry in the list below.
Field format: number, assumed MFI, no unit text.

binder: variant ICOSL ECD-Fc fusion, full length N52H/N57Y/Q100R/F172S (Fc fusion, not shown: a dimerising Fc or GST) DTQEKEVRAMVGSDVELSCACPEGSRFDLNDVYVYWQTSESKTVVTYHIPQHSSLEYVDSRYRNRALMSPAGMLRGDFSLRLFNVTPQDEQKFHCLVLSRSLGFQEVLSVEVTLHVAANFSVPVVSAPHSPSQDELTFTCTSINGYPRPNVYWINKTDNSLLDQALQNDTVSLNMRGLYDVVSVLRIARTPSVNIGCCIENVLLQQNLTVGSQTGNDIGERDKITENPVSTGEKNAAT
units of measure: MFI
MFI: 606000

What value of MFI has been recorded for this entry: variant ICOSL IgV-Fc fusion N52Q/N57F (Fc fusion) DTQEKEVRAMVGSDVELSCACPEGSRFDLNDVYVYWQTSESKTVVTYHIPQQSSLEFVDSRYRNRALMSPAGMLRGDFSLRLFNVTPQDEQKFHCLVLSQSLGFQEVLSVEVTLHVAANFSVGSGGGGSEPKSSDKTHTCPPCPAPEAEGAPSVFLFPPKPKDTLMISRTPEVTCVVVDVSHEDPEVKFNWYVDGVEVHNAKTKPREEQYNSTYRVVSVLTVLHQDWLNGKEYKCKVSNKALPAPIEKTISKAKGQPREPQVYTLPPSREEMTKNQVSLTCLVKGFYPSDIAVEWESNGQPENNYKTTPPVLDSDGSFFLYSKLTVDKSRWQQGNVFSCSVMHEALHNHYTQKSLSLSPG 367000
